The reader will find reported MIC, combination of CAZ and compounds of the invention values listed item by item below.
Tested on: K. pneumoniae BAA-1898 (TEM-1, SHV-11, SHV-12, KPC-2)
runDescription: MIC of compounds and synergy with ceftazidime (broth microdilution)
Assay type: cell-based
recordedConditions: MIC of ceftazidime with compound fixed at 4 μg/mL; strain BAA-1898 (K. pneumoniae)
Where a name gives a salt, the structure may show the parent alone.
propertyMeasured: MIC, combination of CAZ and compounds of the invention (µg/mL)

{"columns": ["compound", "units", "relation", "quantitativeResult"],
 "data": [
  ["NC[C@@H]1C=C(c2cnco2)[C@@H]2CN1C(=O)N2OS(=O)(=O)O (relative stereo) [Example 1, sulfate]", "µg/mL", "=", 0.5],
  ["NC[C@@H]1C(c2nccs2)=C[C@@H]2CN1C(=O)N2OS(=O)(=O)[O-].O=C(O)C(F)(F)F.[Na+]", "µg/mL", "≤", 0.125],
  ["N=C(N)NC[C@@H]1C(c2nccs2)=C[C@@H]2CN1C(=O)N2OS(=O)(=O)O", "µg/mL", "≤", 0.125],
  ["NC[C@@H]1C(c2ncco2)=C[C@@H]2CN1C(=O)N2OS(=O)(=O)[O-].O=C(O)C(F)(F)F.[Na+]", "µg/mL", "≤", 0.125],
  ["Cn1cc(C2=C[C@@H](CN)N3C[C@@H]2N(OS(=O)(=O)O)C3=O)cnc1=O (relative stereo)", "µg/mL", "=", 4],
  ["NC[C@@H]1C=C(c2cnco2)[C@@H]2CN1C(=O)N2OC(F)(F)C(=O)O (relative stereo)", "µg/mL", "=", 1]
]}
